# STUDY TARGET: Human HDAC1 (Homo sapiens, UniProt Q13547)
# Construct: full length with C-terminal His-tag and C-terminal FLAG-tag; His (C); FLAG (C); host or cells: baculovirus expression system
# Sequence (Q13547 whole entry): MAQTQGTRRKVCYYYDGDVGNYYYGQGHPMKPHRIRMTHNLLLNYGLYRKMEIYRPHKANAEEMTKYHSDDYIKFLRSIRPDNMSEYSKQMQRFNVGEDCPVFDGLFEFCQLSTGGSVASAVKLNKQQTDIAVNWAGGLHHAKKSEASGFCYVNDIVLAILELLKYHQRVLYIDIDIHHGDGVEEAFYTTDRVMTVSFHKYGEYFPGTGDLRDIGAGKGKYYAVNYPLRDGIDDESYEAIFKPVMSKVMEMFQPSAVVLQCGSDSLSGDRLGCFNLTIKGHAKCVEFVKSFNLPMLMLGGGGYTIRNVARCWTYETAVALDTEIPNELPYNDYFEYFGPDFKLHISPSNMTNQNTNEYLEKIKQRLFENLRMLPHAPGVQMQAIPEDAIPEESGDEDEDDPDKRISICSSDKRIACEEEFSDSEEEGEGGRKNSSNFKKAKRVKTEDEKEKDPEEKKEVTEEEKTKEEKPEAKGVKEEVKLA
# ASSAY METHOD TEXT: HDAC1 biochemical assay, AMC-labeled peptide substrate
# CONDITION DESCRIPTION: read-out: HDAC Isoform IC50 (nM) 1
OUTCOME MEASURE: IC50

In the examples that follow, each entry is paired with its recorded IC50.
CHEMICAL STRING	MEASURED VALUE
O=C(c1ccc(N(Cc2ccc(-c3noc(C(F)(F)F)n3)s2)c2cnccn2)nn1)N1C[C@@H]2C[C@H]1C[S@@+]2[O-]	≤ 10000 nM
Nc1cnnc(N(Cc2ccc(-c3noc(C(F)(F)F)n3)s2)c2cnccn2)c1	> 10000 nM
FC(F)(F)c1cnnc(N(Cc2ccc(-c3noc(C(F)(F)F)n3)s2)c2ccncc2)c1	> 10000 nM
O=C(c1cnnc(N(Cc2ccc(-c3noc(C(F)(F)F)n3)s2)c2cnccn2)c1)N1CCC1	> 10000 nM

# value of IC50, Human HDAC1 (Homo sapiens, UniProt Q13547), item CS(=O)(=O)c1cnc(N(Cc2ccc(-c3noc(C(F)(F)F)n3)s2)c2cnccn2)cn1 = > 10000 nM

====

# STUDY TARGET: Human HDAC9 (Homo sapiens, UniProt Q9UKV0)
# Construct: amino acids 604-1066 with C-terminal His tag; His (C); host or cells: baculovirus expression system
# Sequence (Q9UKV0 604-1066 isoform Q9UKV0-5): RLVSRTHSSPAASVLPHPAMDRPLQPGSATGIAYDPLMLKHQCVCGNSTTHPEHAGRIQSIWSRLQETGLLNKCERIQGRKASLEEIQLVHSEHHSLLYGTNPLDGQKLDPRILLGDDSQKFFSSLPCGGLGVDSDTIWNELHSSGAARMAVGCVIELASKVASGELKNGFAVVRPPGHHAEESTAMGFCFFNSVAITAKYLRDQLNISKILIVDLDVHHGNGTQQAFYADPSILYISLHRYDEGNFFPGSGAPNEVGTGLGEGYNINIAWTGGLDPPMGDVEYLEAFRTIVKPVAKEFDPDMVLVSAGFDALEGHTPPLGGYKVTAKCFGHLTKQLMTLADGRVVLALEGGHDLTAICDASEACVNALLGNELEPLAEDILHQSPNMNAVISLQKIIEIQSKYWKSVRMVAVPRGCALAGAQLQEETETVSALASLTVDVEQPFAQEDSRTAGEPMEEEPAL
# ASSAY METHOD TEXT: HDAC9 biochemical assay, class IIa-specific substrate
# CONDITION DESCRIPTION: read-out: HDAC Isoform IC50 (nM) 9
OUTCOME MEASURE: IC50

Record Cc1cncc(N(Cc2ccc(-c3noc(C(F)(F)F)n3)s2)c2cncc(C)n2)n1 [Example BX] ; system Human HDAC9 (Homo sapiens, UniProt Q9UKV0); IC50 = ≤ 10000 nM

====

# STUDY TARGET: Human HDAC4 (Homo sapiens)
# Construct: amino acids 627-1085 with N-terminal GST tag; GST (N); host or cells: baculovirus expression system
# Sequence (P56524 627-1084 limits assumed): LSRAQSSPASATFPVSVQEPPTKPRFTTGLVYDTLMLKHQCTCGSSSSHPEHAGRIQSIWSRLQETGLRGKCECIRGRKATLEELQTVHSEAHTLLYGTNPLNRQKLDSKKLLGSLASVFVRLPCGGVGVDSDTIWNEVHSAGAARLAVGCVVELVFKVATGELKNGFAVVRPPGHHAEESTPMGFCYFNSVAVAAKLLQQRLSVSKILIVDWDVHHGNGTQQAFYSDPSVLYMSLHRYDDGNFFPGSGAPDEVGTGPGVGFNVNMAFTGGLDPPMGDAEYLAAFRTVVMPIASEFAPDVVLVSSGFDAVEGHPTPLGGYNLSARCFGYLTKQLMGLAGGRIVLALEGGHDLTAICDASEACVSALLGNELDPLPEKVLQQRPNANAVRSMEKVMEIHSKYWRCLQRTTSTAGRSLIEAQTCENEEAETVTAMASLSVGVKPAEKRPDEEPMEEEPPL
# ASSAY METHOD TEXT: HDAC4 biochemical assay, class IIa-specific substrate
# CONDITION DESCRIPTION: read-out: HDAC Isoform IC50 (nM) 4
Below, each entry is listed with its recorded IC50.

MOLECULE	IC50
FC(F)(F)c1nccc(N(Cc2ccc(-c3noc(C(F)(F)F)n3)s2)c2cnccn2)n1 [Example CD]	≤ 1000 nM
FC(F)(F)c1nc(-c2ccc(CN(c3cnccn3)c3cnc(-c4ccco4)cn3)s2)no1 [Example BJ]	≤ 1000 nM
COC1(C(F)(F)F)CN(C(=O)c2cnnc(N(Cc3ccc(-c4noc(C(F)(F)F)n4)s3)c3cnccn3)c2)C1 [Example GL]	≤ 10000 nM

Form field IC50, entry FC(F)(F)c1nc(-c2ccc(CN(c3cnccn3)c3nccnn3)s2)no1 [Example DE] : ≤ 1000 nM

Entry OC1(c2cnnc(N(Cc3ccc(-c4noc(C(F)(F)F)n4)s3)c3cnccn3)c2)COC1 [Example GW] , IC50 reported as ≤ 10000 nM

Documented IC50 of FC(F)(F)c1nc(-c2ccc(CN(c3cnccn3)c3nccc4nccnc34)s2)no1 [Example AL] : ≤ 10000 nM

====

# STUDY TARGET: Human HDAC9 (Homo sapiens, UniProt Q9UKV0)
# Construct: amino acids 604-1066 with C-terminal His tag; His (C); host or cells: baculovirus expression system
# ASSAY METHOD TEXT: HDAC9 biochemical assay, class IIa-specific substrate
# CONDITION DESCRIPTION: read-out: HDAC Isoform IC50 (nM) 9
OUTCOME MEASURE: IC50

As a guide, the following entries are already answered.
COMPOUND	MEASURED VALUE
FC(F)(F)c1nc(-c2ccc(CN(c3cnccn3)c3cncnc3C(F)(F)F)s2)no1 [Example DA]	≤ 10000 nM
FC(F)(F)c1nc(-c2ccc(CN(c3ccc(N4CCCC4)nc3)c3cnccn3)s2)no1 [Example AP]	≤ 10000 nM

// FC(F)(F)c1nc(-c2ccc(CN(c3cnccn3)c3ccnc4ccnn34)s2)no1 [Example CF] : IC50 value = ≤ 10000 nM

The recorded IC50 for entry FC(F)(F)c1nc(-c2ccc(CN(c3ccc(N4CCOCC4)cn3)c3cnccn3)s2)no1 [Example AD] equals ≤ 10000 nM

Notebook: O=C(c1ccc(N(Cc2ccc(-c3noc(C(F)(F)F)n3)s2)c2cnccn2)nn1)N1CC[S+]([O-])CC1 [Example FD] , IC50 read as ≤ 10000 nM

Origin of the recorded values: patent US20210038607A1
